Each recorded value in this set is attributed to PubChem BioAssay (NCI).

- System: TK-10 renal
- TEST_METHOD_NOTES: NCI tumour cell line growth inhibition, 48 h; in the data active = GI50 below about 0.43 µM; inactive = the rest
Respond using exactly one of the listed classes: class 1 (active), class 0 (inactive)

Examples with answers:
[[record]]
compound = "O=C(O)c1ccc(NCn2nc(-c3ccccc3O)oc2=S)cc1O"
group_label = "class 0"

[[record]]
compound = "Fc1cc(C2=Nn3c(nnc3-c3cc(F)c(Cl)cc3Cl)SC2)c(Cl)cc1Cl"
group_label = "class 0"

[[record]]
compound = "COc1ccc2c(c1)OC(N)=C(C#N)C2c1ccc(F)c(F)c1 (stereo not given)"
group_label = "class 0"

[[record]]
compound = "O=C1/C(=C\\c2ccc(Cl)cc2)CN(C(=O)c2ccccc2)C/C1=C\\c1ccc(Cl)cc1"
group_label = "class 0"

[[record]]
compound = "Cl.Fc1c[c-]c(-c2ccccn2)c(F)c1.[Pt].c1ccc([PH+](c2ccccc2)c2ccccc2[PH+](c2ccccc2)c2ccccc2)cc1"
group_label = "class 1"


For COc1ncnn2ccc(-c3cnc4nc(C)n(Cc5nnc(C(C)F)o5)c4c3)c12 (stereo not given) , which call appears in the assay record? class 1

For `CSc1nc(SC)c2cnn(-c3ccnc4cc(Cl)ccc34)c2n1` , which call appears in the assay record? class 0

For `NS(=O)(=O)c1ccc(N=Nc2c(O)[nH]c3cccc(CCc4ccncc4)c23)cc1` , which call appears in the assay record? class 0

---

- System: HOP-92 NSCLC
- TEST_METHOD_NOTES: NCI tumour cell line growth inhibition, 48 h
ENDPOINT_NAME: TGI (µM)
Supply the numeric figure in µM, leaving out any unit text.

Lookup result for CCOC(=O)C(CC(C)C)NC(=O)C(N)Cc1ccc(N(CCCl)CCCl)cc1 (configuration not stated) ; measured TGI: 11.2

Lookup result for `CC(=O)OCc1cc(OC(C)=O)c2cc3c(OC(C)=O)cccc3c(OC(C)=O)c2c1` ; measured TGI: 52.2

Lookup result for `Clc1ccc(Nc2ncnc3ccccc23)cc1` ; measured TGI: 73.2

Lookup result for CCC1CN2CCc3cc(OC)c(OC)cc3C2CC1CC1c2cc(OC)c(OC)cc2CCN1C(=O)C(Cc1c[nH]c2ccccc12)NC(=O)OC(C)(C)C (configuration not stated) ; measured TGI: 7.1

Lookup result for `COc1c(O)cc2c(c1CC=C(C)C)OC(=O)c1c(cc(O)c(CC=C(C)C)c1O)O2` ; measured TGI: 7.78

Lookup result for `COc1ccccc1NC(=S)NNC(=O)c1cc(-c2ccccc2)nc2ccccc12` ; measured TGI: 36.5

Lookup result for `Cc1cn2c(/C=N/NC3=NCCN3)c(-c3ccc(Cl)c([N+](=O)[O-])c3)nc2s1` ; measured TGI: 2.82

Lookup result for `Cc1ccc2[nH]c3c(C)c4cc[n+](C)cc4c(C)c3c2c1` ; measured TGI: 33.7

Lookup result for C=CC(Br)(CBr)CCC1OC1(C)C (configuration not stated) ; measured TGI: 28.2

Lookup result for `ClCc1nnc2n1-c1ccc(Cl)cc1SC2` ; measured TGI: 9.26

Lookup result for `Cc1cc(C)c(S(=O)(=O)N(CCCCCCN)OCCCON(CCCCCCN)S(=O)(=O)c2c(C)cc(C)cc2C)c(C)c1` ; measured TGI: 2.96

Lookup result for CC(C)C1=CC23CCC4C(C)(C(=O)O)CCCC4(C)C2CC1C1C(=O)N(c2ccc(N4C(=O)C5C6CC7C8(C)CCCC(C)(C(=O)O)C8CCC7(C=C6C(C)C)C5C4=O)cc2)C(=O)C13 (configuration not stated) ; measured TGI: 28.5

---

- Test system: MOLT-4 leukemia
- TEST_METHOD_NOTES: NCI tumour cell line growth inhibition, 48 h
Entries get a class label from measured TGI. See ranges: 0 (below 10 µM), 1 (10 µM to below 40 µM), 2 (40 µM or more)

Examples with answers:
[[record]]
compound = "CN(NC(=O)c1ccc(Cl)cc1)C1=NCCCCN1"
group_label = 2

[[record]]
compound = "CC[C@H](C)[C@H](NC(=O)[C@H](Cc1ccc(O)cc1)NCC(F)(F)F)C(=O)OC(C)(C)C"
group_label = 1


Exercise: read the entry CC12CCC3C(CCC4(O)C=CCCC34C=O)C1(O)CC(O)C2c1ccc(=O)oc1 (stereo unspecified) and state which class it falls under. 0

Exercise: read the entry `COc1ccc(-c2nc(SCC(=O)N/N=C/c3ccc([N+](=O)[O-])cc3)[nH]c2-c2ccc(OC)cc2)cc1` and state which class it falls under. 2

Exercise: read the entry `Oc1c(Nc2ccccc2)cc2c3c1N=NC=3CCN=2` and state which class it falls under. 2

Exercise: read the entry OCC(O)COc1ccc(F)cc1 (stereo unspecified) and state which class it falls under. 2

Exercise: read the entry `CCCc1c(O)c2ccccc2[nH]c1=O` and state which class it falls under. 2

---

Catalogue of TGI readings, one per entry.
- Tested on: SN12C renal
- TEST_METHOD_NOTES: NCI tumour cell line growth inhibition, 48 h

[[record]]
compound = "O=C(c1ccccc1)c1ccc(N2C(=O)/C(=C/c3cccc([N+](=O)[O-])c3)N=C2c2ccccc2)c(N2C(=O)/C(=C/c3cccc([N+](=O)[O-])c3)N=C2c2ccccc2)c1"
endpoint_name = "TGI"
observed = "> 100 µM"

[[record]]
compound = "CNC(=O)Nn1c(SC)nc2ccccc21"
endpoint_name = "TGI"
observed = "> 100 µM"

[[record]]
compound = "CSc1nc(SC)c2cnn(-c3ccnc4cc(Cl)ccc34)c2n1"
endpoint_name = "TGI"
observed = "> 100 µM"

[[record]]
compound = "Cc1ccc([N+](=O)[O-])cc1S(=O)(=O)Nc1ccc(C(=O)/C=C/c2ccccc2)cc1"
endpoint_name = "TGI"
observed = "43.2 µM"


Form field TGI for item `CCCC(c1cc(C(C)(C)C)c(O)cc1C)c1cc(C(C)(C)C)c(O)cc1C` on SN12C renal: 3.81 µM

Form field TGI for item `COc1ccc(/C=C2\N=C(N3CCOCC3)NC2=O)cc1` on SN12C renal: > 100 µM

Form field TGI for item COC1OC(CO)C(O)C(NC(=O)N(C)N=O)C1O (stereo not given) on SN12C renal: > 100 µM

---

- Test system: ACHN renal
- TEST_METHOD_NOTES: NCI tumour cell line growth inhibition, 48 h; in the data active = GI50 below about 0.43 µM; inactive = the rest
Respond using exactly one of the listed classes: active, inactive

[[record]]
compound = "COc1cc2c3c(n(CCCNC(C)(C)CO)c(=O)c2cc1OC)-c1cc2c(cc1C3=O)OCO2"
assayed_target = "ACHN renal"
group_label = "active"

[[record]]
compound = "Nc1n[nH]c2ccc([C@H]3[C@@H]4C5CCC(C5)[C@@H]4c4c(ccc5[nH]ncc45)N3S(=O)(=O)C3CC3)cc12 (stereo partly specified)"
assayed_target = "ACHN renal"
group_label = "active"

[[record]]
compound = "NNC(=S)N/N=C/c1ccccn1"
assayed_target = "ACHN renal"
group_label = "inactive"

[[record]]
compound = "N#CC1(C#N)C2C=CC(C3CC=CC32)C1(C#N)C#N (stereo unspecified)"
assayed_target = "ACHN renal"
group_label = "inactive"

[[record]]
compound = "CC(C)[C@]12O[C@H]1[C@@H]1O[C@]13[C@]1(O[C@H]1C[C@H]1C4=C(CC[C@@]13C)C(=O)OC4)[C@@H]2OC(=O)OC(C)(C)C"
assayed_target = "ACHN renal"
group_label = "active"


For COc1ccc2c(c1)OC(N)=C(C#N)C2c1ccc(F)c(F)c1 (stereo unspecified) , which call appears in the assay record? inactive

For `O=C(CSc1nc2ccc([N+](=O)[O-])cc2[nH]1)Nc1ccc([N+](=O)[O-])cc1` , which call appears in the assay record? inactive

---

- System: NCI-H23 lung
- TEST_METHOD_NOTES: NCI tumour cell line growth inhibition, 48 h
Catalogue of TGI readings, one per entry.

Please review the entries below; each comes with its answer.
[[record]]
compound = "Cn1cnc([N+](=O)[O-])c1Sc1nccn1-c1ccccc1"
observed = "79.6 µM"

[[record]]
compound = "NC(=S)N/N=C/c1cn(CCCl)c2ccccc12"
observed = "> 100 µM"

[[record]]
compound = "CC1=N/C(=C\\c2ccc(N)cc2)C(=O)N1Nc1nnc(NN2C(=O)/C(=C/c3ccc(N)cc3)N=C2C)c2ccccc12"
observed = "> 100 µM"


We now examine a further compound.
Lookup result for C=CC(Br)(CBr)CCC1OC1(C)C (centres undefined) ; measured TGI: 30.3 µM

---

Catalogue of TGI readings, one per entry.
- Tested on: OVCAR-8 ovarian
- TEST_METHOD_NOTES: NCI tumour cell line growth inhibition, 48 h

Please review the entries below; each comes with its answer.
[[record]]
compound = "Cc1ccc(C)c(N2C(=O)C(=O)C(c3nc4ccccc4s3)C(=O)C2=O)c1"
endpoint_name = "TGI"
observed = "> 100 µM"

[[record]]
compound = "Cc1ccc(S(=O)(=O)NN=C2C(C)CC(C(C)(C)C)CC2C)cc1 (stereo unspecified)"
endpoint_name = "TGI"
observed = "59.8 µM"

[[record]]
compound = "O=C1NC(=S)NC1C(Cc1ccccc1)c1ccco1 (stereo unspecified)"
endpoint_name = "TGI"
observed = "> 100 µM"

[[record]]
compound = "O=C(O)CSc1nc2ccccc2[nH]1"
endpoint_name = "TGI"
observed = "> 100 µM"


We now examine a further compound.
Lookup result for `CSc1nc(SC)c2c(C)cn(Cc3ccccc3)c2n1` ; measured TGI: > 100 µM
